# tested_on: CDK6/Cyclin D1 (Homo sapiens (Human))
# procedure_text: biochemical
# cond: CDK6_Ki (nM), non-phosphorylated CDK6/Cyclin D1, 2 mM ATP, Morrison fit
metric: Ki (nM)

Identify measured Ki associated with `NS(=O)(=O)N1CCC(Nc2ncc3ccc(=O)n(C4CCCCCC4)c3n2)CC1`
7

(a) C[C@@H]1[C@@H](O)CC[C@@H]1n1c(=O)ccc2cnc(NC3CCN(S(C)(=O)=O)CC3)nc21 (single isomer, unassigned)
(b) C[C@]1(O)CCC[C@@H]1n1c(=O)ccc2cnc(NC3CCN(S(=O)(=O)c4nccs4)CC3)nc21 (single isomer, unassigned)
Could you determine which record has the numerically smaller Ki? Candidates: a and b // output: label of the selected item
a

====

# tested_on: CDK2/Cyclin E1 (Homo sapiens (Human), UniProt P24941)
# procedure_text: biochemical
# cond: CDK2_Ki (nM), phosphorylated CDK2/Cyclin E1, 150 μM ATP, Morrison tight-binding fit
metric: Ki (nM)

State its Ki for this compound: COC(C)(C)CNS(=O)(=O)N1CCC(Nc2ncc3cc(C)c(=O)n([C@@H]4CCC[C@@]4(C)O)c3n2)CC1 (single isomer, unassigned)
0.33

Return value of Ki for input Cc1cc2cnc(NC3CCN(S(C)(=O)=O)CC3)nc2n([C@H]2C[C@@H](O)C[C@H]2C)c1=O (single isomer, unassigned) , no commentary.
9.51

In one line, give reported Ki of the entry `Cc1cc2cnc(NC3CCN(S(C)(=O)=O)CC3)nc2n([C@@H]2CCC[C@@H]2C)c1=O` .
0.06

Fill in reported Ki for this entry: C[C@H]1[C@@H](O)CC[C@@H]1n1c(=O)c(C(F)F)cc2cnc(NC3CCN(S(C)(=O)=O)CC3)nc21 (single isomer, unassigned)
5.22

(a) CCS(=O)(=O)N1CCC(Nc2ncc3ccc(=O)n([C@H]4CCC[C@]4(C)O)c3n2)CC1 (single isomer, unassigned)
(b) C[C@@]1(O)CCC[C@H]1n1c(=O)c(C(F)F)cc2cnc(NC3CCN(S(N)(=O)=O)CC3)nc21 (single isomer, unassigned)
(c) CS(=O)(=O)N1CCC(Nc2ncc3cc(C(F)(F)C(=O)O)c(=O)n(C4CCCC4)c3n2)CC1
(d) C[C@@]1(O)CCC[C@H]1n1c(=O)ccc2cnc(NC3CCN(S(=O)(=O)C4CCS(=O)(=O)C4)CC3)nc21 (single isomer, unassigned) [Example 70]
Reorder: Ki, max to min. # answer = labels listed in requested order
a, c, d, b
(a: 4.07 nM, c: 2.43 nM, d: 0.35 nM, b: 0.08 nM)

====

# tested_on: CDK6/Cyclin D1 (Homo sapiens (Human), UniProt Q00534)
# Sequence (Q00534 whole entry): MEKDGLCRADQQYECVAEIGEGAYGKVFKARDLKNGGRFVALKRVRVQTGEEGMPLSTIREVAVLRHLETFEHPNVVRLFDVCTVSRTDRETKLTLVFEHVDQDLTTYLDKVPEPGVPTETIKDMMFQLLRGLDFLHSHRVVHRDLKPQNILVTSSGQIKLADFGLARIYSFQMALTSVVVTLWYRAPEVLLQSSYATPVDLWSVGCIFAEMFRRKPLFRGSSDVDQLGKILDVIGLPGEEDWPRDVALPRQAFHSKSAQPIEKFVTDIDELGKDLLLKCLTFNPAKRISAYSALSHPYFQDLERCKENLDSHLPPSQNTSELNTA
# Sequence (P24385 whole entry partner): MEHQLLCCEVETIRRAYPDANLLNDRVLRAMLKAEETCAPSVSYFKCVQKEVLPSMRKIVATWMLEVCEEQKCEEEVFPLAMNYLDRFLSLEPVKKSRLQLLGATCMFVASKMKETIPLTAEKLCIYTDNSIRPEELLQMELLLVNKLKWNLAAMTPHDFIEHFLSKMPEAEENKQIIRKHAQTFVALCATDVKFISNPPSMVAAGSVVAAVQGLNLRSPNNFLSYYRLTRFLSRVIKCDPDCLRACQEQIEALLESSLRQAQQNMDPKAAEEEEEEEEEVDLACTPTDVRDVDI
# procedure_text: biochemical
# cond: CDK6_Ki (nM), non-phosphorylated CDK6/Cyclin D1, 2 mM ATP, Morrison fit
metric: Ki (nM)

Please look at this molecule and report its Ki: C[C@]1(O)CCC[C@@H]1n1c(=O)ccc2cnc(NC3CCN(S(=O)(=O)NC4CCOCC4)CC3)nc21 (single isomer, unassigned)
22.2

State its Ki for this molecule: `Cc1cc2cnc(NC3CCN(S(N)(=O)=O)CC3)nc2n(C2CCCC2)c1=O`
0.23

(P) COCCS(=O)(=O)N1CCC(Nc2ncc3ccc(=O)n([C@@H]4CCC[C@@H]4C)c3n2)CC1
(Q) C[C@@]1(O)CCC[C@H]1n1c(=O)ccc2cnc(NC3CCN(S(=O)(=O)CF)CC3)nc21 (single isomer, unassigned)
Thinking about recorded Ki values, which is higher, P or Q ? Give the label of your selection.
Q
